We begin with a simple list: items and their reported relative activity, 3-HPBA.
# Test system: protease according to SEQ ID NO: 3
# method-summary: Relative proteolytic activity with reversible inhibitor in liquid surfactant preparation (Example 1)
# Assay type: biochemical
# experimental-setup: Table 1; 3-HPBA in amount inhibiting starting enzyme by 20-40%; 50% conc. surfactant preparation, 0.92 mM AAPF, 25° C., pH 8.6; relative to same protease without inhibitor
Response body: numeric value in %, unit text excluded.

Sample answers from the record:
[
  {
    "molecule": "S166A: protease of SEQ ID NO: 3 with amino acid substitution S166A in the count according to SEQ ID NO: 1 (protein, listed as Bacillus lentus) AQSVPWGISRVQAPAAHNRGLTGSGVKVAVLDTGISTHPDLNIRGGASFVPGEPSTQDGNGHGTHVAGTIAALNNSIGVLGVAPSAELYAVKVLGADGEGAISSIAQGLEWAGNNGMHVANLSLGSPSPSATLEQAVNSATSRGVLVVAASGNSGASSIAYPARYANAMAVGATDQNNNRASFSQYGAGLDIVAPGVNVQSTYPGSTYASLNGTSMATPHVAGAAALVKQKNPSWSNVQIRNHLKNTATSLGSTNLYGSGLVNAEAATR",
    "relative activity, 3-HPBA [%]": 83
  },
  {
    "molecule": "S166: protease according to SEQ ID NO: 3 used as the hydrolytic enzyme (starting enzyme) (protein, listed as Bacillus lentus) AQSVPWGISRVQAPAAHNRGLTGSGVKVAVLDTGISTHPDLNIRGGASFVPGEPSTQDGNGHGTHVAGTIAALNNSIGVLGVAPSAELYAVKVLGADGEGAISSIAQGLEWAGNNGMHVANLSLGSPSPSATLEQAVNSATSRGVLVVAASGNSGASSISYPARYANAMAVGATDQNNNRASFSQYGAGLDIVAPGVNVQSTYPGSTYASLNGTSMATPHVAGAAALVKQKNPSWSNVQIRNHLKNTATSLGSTNLYGSGLVNAEAATR",
    "relative activity, 3-HPBA [%]": 83
  }
]

Turning now to a further molecule:
// S166V: protease of SEQ ID NO: 3 with amino acid substitution S166V in the count according to SEQ ID NO: 1 (protein, listed as Bacillus lentus) AQSVPWGISRVQAPAAHNRGLTGSGVKVAVLDTGISTHPDLNIRGGASFVPGEPSTQDGNGHGTHVAGTIAALNNSIGVLGVAPSAELYAVKVLGADGEGAISSIAQGLEWAGNNGMHVANLSLGSPSPSATLEQAVNSATSRGVLVVAASGNSGASSIVYPARYANAMAVGATDQNNNRASFSQYGAGLDIVAPGVNVQSTYPGSTYASLNGTSMATPHVAGAAALVKQKNPSWSNVQIRNHLKNTATSLGSTNLYGSGLVNAEAATR : relative activity, 3-HPBA value = 53
